target: DNA topoisomerase 1 (Homo sapiens) (UniProt P11387); test: Inhibition of DNA topoisomerase 1 assessed as inhibition of unwinding of supercoiled pBR322 DNA at 20 uM by agarose gel electrophoresis
Sequence (P11387 whole entry): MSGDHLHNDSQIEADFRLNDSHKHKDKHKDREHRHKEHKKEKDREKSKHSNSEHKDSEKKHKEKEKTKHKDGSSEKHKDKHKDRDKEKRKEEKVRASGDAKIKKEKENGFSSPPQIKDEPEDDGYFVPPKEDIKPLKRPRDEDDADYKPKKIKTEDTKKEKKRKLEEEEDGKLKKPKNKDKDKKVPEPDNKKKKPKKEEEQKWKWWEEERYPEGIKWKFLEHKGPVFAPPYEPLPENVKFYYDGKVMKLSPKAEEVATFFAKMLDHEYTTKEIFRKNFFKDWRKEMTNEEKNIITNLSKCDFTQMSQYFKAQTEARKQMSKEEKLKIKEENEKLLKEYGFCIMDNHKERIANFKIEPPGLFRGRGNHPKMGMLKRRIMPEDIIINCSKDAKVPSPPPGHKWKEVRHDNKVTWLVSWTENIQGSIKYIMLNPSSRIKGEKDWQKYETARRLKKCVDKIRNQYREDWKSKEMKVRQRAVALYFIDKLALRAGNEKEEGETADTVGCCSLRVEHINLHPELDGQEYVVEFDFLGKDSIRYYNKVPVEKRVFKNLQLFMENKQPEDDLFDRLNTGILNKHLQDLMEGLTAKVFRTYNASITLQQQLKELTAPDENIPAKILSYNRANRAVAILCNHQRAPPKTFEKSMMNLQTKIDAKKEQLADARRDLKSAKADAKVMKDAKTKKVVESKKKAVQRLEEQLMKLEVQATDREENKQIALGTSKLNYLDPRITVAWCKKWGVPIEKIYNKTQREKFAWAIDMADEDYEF
The source made the active and inactive calls. The rule behind the calls is not given here.

smiles.record	Activity
CO[C@H](C(=O)[C@@H](O)[C@@H](C)O)[C@@H]1Cc2cc3c(/N=N/c4ccc(S(N)(=O)=O)cc4)c(O)cc(O)c3c(O)c2C(=O)[C@H]1O[C@H]1C[C@@H](O[C@H]2C[C@@H](O[C@H]3C[C@](C)(O)[C@@H](OC(=O)C(C)C)[C@H](C)O3)[C@H](O)[C@@H](C)O2)[C@H](O)[C@@H](C)O1	inactive
COc1ccc(/N=N/c2c(O)cc(O)c3c(O)c4c(cc23)C[C@@H]([C@H](OC)C(=O)[C@@H](O)[C@@H](C)O)[C@H](O[C@H]2C[C@@H](O[C@H]3C[C@@H](O[C@H]5C[C@](C)(O)[C@@H](OC(=O)C(C)C)[C@H](C)O5)[C@H](O)[C@@H](C)O3)[C@H](O)[C@@H](C)O2)C4=O)cc1	inactive
CO[C@H](C(=O)[C@@H](O)[C@@H](C)O)[C@@H]1Cc2cc3c(/N=N/c4ccccc4)c(O)cc(O)c3c(O)c2C(=O)[C@H]1O[C@H]1C[C@@H](O[C@H]2C[C@@H](O[C@H]3C[C@](C)(O)[C@@H](OC(=O)C(C)C)[C@H](C)O3)[C@H](O)[C@@H](C)O2)[C@H](O)[C@@H](C)O1	inactive
